assay-details: amyloid nucleation score (Sup35N fusion, yeast selection) (log enrichment); library NNK2; higher = more nucleation; inactive = no reads after selection;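 also: zero at mode of non-aggregating sequences after 7 days selection at 30°C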
Assign t to entries whose amyloid nucleation score meets or exceeds 0.2; assign f to the rest.

Study these solved cases before continuing.
[
  {
    "substance": "GSLMRFDSWLGGTIASS",
    "class-label": "t"
  },
  {
    "substance": "SPAWRNGDPRKKATPTHTGI",
    "class-label": "f"
  },
  {
    "substance": "RLCANDLIIGVEMGEGVFDY",
    "class-label": "t"
  },
  {
    "substance": "CLGNVCNSFNWLDVRACVWR",
    "class-label": "t"
  },
  {
    "substance": "TVRVGAIVNSTHLVGTNSAF",
    "class-label": "f"
  }
]

Ask | Check if amyloid nucleation score >= 0.2 (inclusive). Item: SDINRVVGLPRTRLALRSKR
Reply | f

Ask | Entry RDWRVFIYFMGNVVLDY please
Reply | t

Ask | Entry LLGVFTETKGNP please
Reply | t
